The entries below are paired with their reported EC50 viability, macrophages D560.
target desc: T1, human TREM2 expressed on cells (human, UniProt Q9NZC2 19-230)
T1 sequence: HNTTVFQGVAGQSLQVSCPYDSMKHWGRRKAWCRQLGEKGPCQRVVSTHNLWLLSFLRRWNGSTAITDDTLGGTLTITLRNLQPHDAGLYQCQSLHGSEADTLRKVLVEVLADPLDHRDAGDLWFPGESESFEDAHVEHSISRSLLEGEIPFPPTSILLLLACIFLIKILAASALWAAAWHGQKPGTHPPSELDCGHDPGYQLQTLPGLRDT
experimental protocol: cell-based or functional assay
Hi! Could you send only the number? It should be in nM, unit omitted.

binder: AL2p huIgG1 (human mouse chimeric parental antibody) (antibody, V domains shown, Mouse variable region with human IgG1 Fc region; Fab and IgG formats under one id; also called chimeric parental AL2p antibody as huIgG1) VH: QVQLQQSGPELVKPGASLKISCKASGYAFSSSWMNWVKQRPGKGLEWIGRIYPGDGDTNYNGEFRVRATLTADTSSTTAYMQLSSLTSEDSAVYFCARLLRNQPGESYAMDYWGQGASVTVSS VL: DVVMTQTPLSLPVSLGDQASISCRSSQSLVHSNGYTYLHWYLQKPGQSPKLLIYKVSNRFSGVPDRFSGSGSGTDFTLKISRVEADDLGVYFCSQSTRVPYTFGGGTKLEIK
EC50 viability, macrophages D560 [nM]: 129

binder: AL2p-60 (antibody, IgG1, V domains shown) VH: QVQLVQSGAEVKKPGSSVKVSCKASGYAFSSQWMNWVRQAPGQGLEWMGRIYPGEGDTNYARKFQGRVTITADESTSTAYMELSSLRSEDTAVYYCARLLRNQPGESYAMDYWGQGTLVTVSS VL: GVVMTQTPLSLSVTPGQPASISCRSSQSLVHSNQYTYLHWYLQKPGQSPQLLIYKVSNRRSGVPDRFSGSGSGTDFTLKISRVEAEDVGVYYCSQSTRVPYTFGQGTKLEIK
EC50 viability, macrophages D560 [nM]: 0.154

binder: AL2p-47 huIgG1 (antibody, V domains shown) VH: QVQLVQSGAEVKKPGSSVKVSCKASGYAFSSDWMNWVRQAPGQGLEWMGRIYPGEGDTNYARKFHGRVTITADESTSTAYMELSSLRSEDTAVYYCARLLRNKPGESYAMDYWGQGTLVTVSS VL: DVVMTQTPLSLSVTPGQPASISCRTSQSLVHSNAYTYLHWYLQKPGQSPQLLIYKVSNRVSGVPDRFSGSGSGTDFTLKISRVEAEDVGVYYCSQSTRVPYTFGQGTKLEIKR
EC50 viability, macrophages D560 [nM]: 1.25

Field: next binder
Quick one: EC50 viability, macrophages D560 for AL2p-37 (antibody, IgG1, V domains shown, Fab and IgG formats under one id; also called AL2p-37 huIgG1) VH: QVQLVQSGAEVKKPGASVKVSCKASGYAFSSQWMNWVRQAPGQRLEWIGRIYPGGGDTNYAGKFQGRVTITADTSASTAYMELSSLRSEDTAVYYCARLLRNQPGESYAMDYWGQGTLVTVSS VL: DVVMTQSPDSLAVSLGERATINCRSSQSLVHSNGYTYLHWYQQKPGQSPKLLIYKVSNRFSGVPDRFSGSGSGTDFTLTISSLQAEDVAVYYCSQSTRVPYTFGGGTKVEIK ?
31.8
